Taken from the NTF2 design screens of Basanta et al. (2020).

Assay: protease stability score; higher = more stable; yeast display proteolysis, trypsin and chymotrypsin;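 note: log10 excess protease needed over predicted unfolded state with 0 meaning unfolded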
Reported Property: protease stability score
Give the figure by itself; no unit, no explanation.

What protease stability score value was documented for this sequence, `DEENTKVAHEWLRNLERNDPKKLNELADPNAHFNVGDKQVQGMDEFERRIEDKKKEMRMKIDDYKARVHNGHVRVDVIVVIDHNGKPDKKRNVQFFDMENGRISRINQQDTG` ?
-0.164

What protease stability score value was documented for this sequence, `DEEQMERVMQRVIKALQQGDQETVRKLGKPNGEVQAGDYRNKGPEAFVMAVDVAQKVGNKFEYKETRTKGGKMQTVVKVTVGGKTVEYEVEVVVEGGKAKEWYVRLDDDFVEQAKKS` ?
0.514

What protease stability score value was documented for this sequence, `EDRERAKELVKRLTDAFRTNNPDDYVRQAPPDVTMQVGDKQYHGRSKVKEWIKQILDRVDHLKIELVDVKRSGEKLRFKAEYHYEHNGKTDRNTMEMVFTIQGDKMKIDDATQQ` ?
0.134

What protease stability score value was documented for this sequence, `DEETDAKKAKDDMQHVANTNNPKDRETLLDENAEIVVGDEKYQGRHDVQKLNQEIEKRVDEVRVEVTEVTIQGDKLHVDAVFRVRVNGKTEQDRKVIVMDIHNGSVKVRFIHQP` ?
0.94

What protease stability score value was documented for this sequence, `DEVEKAKNLFDRLVRAFKNNNWKQFSDLADEDVRYVVGDKEWHGREQADEMFREMVEEIDHYDIHVKDIKFHNGKVDLKATASFSVNGKTHRFTVEWRVQMHNGHLRVKQVILK` ?
1.25

What protease stability score value was documented for this sequence, `DESRKAREYMDKFKEIMDTGDPDKLRNLVPPDVTMQYGDRSLKGREEFVEHLQELLERADHVDVTVVDVKQDGDQLHFEVRVTYEENGERREYTFVFVAIVQGDKVRVKEMREK` ?
0.065

What protease stability score value was documented for this sequence, `DERLAKQVLTMMRNERTGNEHEVDKYVDPNARFQVGDQEIHGKEELRKEVSRRRNEMRIDFRVEDMKVHGDKVHLSFKNMKNHNGRPESFRATATVHVHNGTVKSVDIKTTK` ?
-0.453

What protease stability score value was documented for this sequence, `DEEDEERFEELLKAEEDGDEDRMNELVDENAEFHYGDTVIDGMTDYAREVVHRLNELRWHIDWDDMKQSNGRIQVRAKLVVKVNGTPNNDDVERQVQWDNGRVHQMNERFDSKKHKEMDK` ?
-0.158

What protease stability score value was documented for this sequence, `DTELTHELSHRIKDNNWEDLSKNADENVEFRVGNKEYHGKEEFQHLQENLKRQIDDVKIHSLTAQGDHLEADVVYNVNGRDLRFTFHMTVRNGKIKEMNASFRDESQVNTMLTVLN` ?
-0.238

What protease stability score value was documented for this sequence, `DQKKLKEQIKELWDALRTGDPQRAADLADPNARIQVGDKEITGREKFREHVKENKERIDRFTINDFKVQGDKARVDFHYEVNGQHRRVDATIVMRNGHIVSAQFDSQ` ?
0.717

What protease stability score value was documented for this sequence, `DEDRVRKVAKEVFEMLKKGDVDKLKELGKEDVVFQFGDERVKGVEEYRRIMKEMQDQGVQHEVKKAQVKDDTAKMVTVVTYGNKDVQLTAEATYEGGRLKEARVENTEEYKKIAKKS` ?
-0.084
